# System: S. aureus
# assayExplanation: Minimal Inhibitory Concentration (MIC) determination, 96 well plates
# Type: cell-based, Staphylococcus aureus
# reportedConditions: Staphylococcus aureus; table of MSSA/MRSA strains; read-out: MIC (µg/ml) S. aureus
reportedMetric: MIC (µg/mL)

INSERT INTO results (compound, testsystem, numericreadout) VALUES
  ('CCc1cc(Nc2cc(=O)n(CCCCN3CCN(c4c(F)cc5c(=O)c(C(=O)O)cn(CC)c5c4Cl)CC3)c(=O)[nH]2)ccc1C [Compound 5]', 'S. aureus', 0.156),
  ('CCc1cc(Nc2cc(=O)n(CCCCN3CCN(c4cc5c(cc4F)c(=O)c(C(=O)O)cn5C4CC4)CC3)c(=O)[nH]2)ccc1C.CS(=O)(=O)O [Compound 10]', 'S. aureus', 0.625),
  ('CCc1cc(Nc2cc(=O)n(CCCCN3CCN(c4cc5c(cc4F)c(=O)c(C(=O)O)cn5C4CC4)CC3)c(=O)[nH]2)ccc1C [Compound 2]', 'S. aureus', 0.625),
  ('CCc1cc(Nc2cc(=O)n(CCCCN3CCN(c4c(F)cc5c(=O)c(C(=O)O)cn(C6CC6)c5c4F)CC3C)c(=O)[nH]2)ccc1C (stereo not shown) [Compound 70]', 'S. aureus', 0.39),
  ('CCc1cc(Nc2cc(=O)n(CCCCN3CCN(c4nc5c(cc4F)c(=O)c(C(=O)O)cn5CC)CC3)c(=O)[nH]2)ccc1C [Compound 6]', 'S. aureus', 0.625),
  ('CCc1cc(Nc2cc(=O)n(CCCCN3CCN(c4cc5c(cc4F)c(=O)c(C(=O)O)cn5-c4ccc(F)cc4F)CC3)c(=O)[nH]2)ccc1C [Compound 12]', 'S. aureus', 0.313),
  ('CCc1cc(Nc2cc(=O)n(CCCCN3CCN(c4c(F)cc5c(=O)c(C(=O)O)cn(CC)c5c4F)CC3)c(=O)[nH]2)ccc1C [Compound 7]', 'S. aureus', 0.625);

###

# testSystem: B. subtilis Pol IIIC (Bacillus subtilis)
# Construct: made in house
# Sequence (P13267 whole entry): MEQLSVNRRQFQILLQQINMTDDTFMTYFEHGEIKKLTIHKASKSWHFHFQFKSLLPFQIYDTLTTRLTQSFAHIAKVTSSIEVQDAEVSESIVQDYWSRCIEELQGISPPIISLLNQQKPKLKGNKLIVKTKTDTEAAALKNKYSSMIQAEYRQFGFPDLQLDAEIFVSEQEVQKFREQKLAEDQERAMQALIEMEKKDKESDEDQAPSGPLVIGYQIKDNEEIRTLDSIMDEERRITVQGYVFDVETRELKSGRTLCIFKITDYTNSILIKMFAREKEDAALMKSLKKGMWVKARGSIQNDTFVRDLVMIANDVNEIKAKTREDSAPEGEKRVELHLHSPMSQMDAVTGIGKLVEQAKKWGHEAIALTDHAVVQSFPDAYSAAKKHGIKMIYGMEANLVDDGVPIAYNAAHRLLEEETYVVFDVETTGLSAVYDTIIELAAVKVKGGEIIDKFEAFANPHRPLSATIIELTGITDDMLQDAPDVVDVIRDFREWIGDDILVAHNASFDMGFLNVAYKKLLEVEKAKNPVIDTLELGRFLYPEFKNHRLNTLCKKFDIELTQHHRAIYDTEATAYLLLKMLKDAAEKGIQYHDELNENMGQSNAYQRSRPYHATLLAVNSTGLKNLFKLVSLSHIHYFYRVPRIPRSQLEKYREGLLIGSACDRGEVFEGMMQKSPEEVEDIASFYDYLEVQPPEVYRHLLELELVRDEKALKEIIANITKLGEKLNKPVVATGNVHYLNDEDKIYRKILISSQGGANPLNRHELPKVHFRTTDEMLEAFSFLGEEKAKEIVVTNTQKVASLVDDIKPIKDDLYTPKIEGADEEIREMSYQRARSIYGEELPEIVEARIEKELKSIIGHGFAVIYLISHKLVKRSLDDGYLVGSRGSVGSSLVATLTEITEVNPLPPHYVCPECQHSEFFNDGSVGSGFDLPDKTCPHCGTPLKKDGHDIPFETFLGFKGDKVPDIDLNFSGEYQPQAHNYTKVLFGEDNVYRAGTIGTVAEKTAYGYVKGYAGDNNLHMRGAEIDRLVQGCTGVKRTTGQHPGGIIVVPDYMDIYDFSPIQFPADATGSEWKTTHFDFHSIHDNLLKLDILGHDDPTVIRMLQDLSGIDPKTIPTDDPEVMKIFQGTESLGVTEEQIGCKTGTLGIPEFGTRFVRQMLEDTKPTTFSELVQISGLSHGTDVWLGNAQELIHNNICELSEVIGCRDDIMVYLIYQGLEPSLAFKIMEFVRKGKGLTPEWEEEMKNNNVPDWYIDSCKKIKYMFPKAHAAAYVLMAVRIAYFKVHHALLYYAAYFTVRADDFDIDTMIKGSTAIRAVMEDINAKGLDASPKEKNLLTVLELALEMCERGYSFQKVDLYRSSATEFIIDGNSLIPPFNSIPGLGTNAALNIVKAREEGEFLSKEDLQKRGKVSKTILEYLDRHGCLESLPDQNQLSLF
# assayExplanation: Polymerase IIIC (Pol IIIC) assay, determination of Ki values
# Format: biochemical
# reportedConditions: Ki (µM) Pol IIIC, assay in absence of dGTP or dATP; Ki is the concentration that reduces control polymerase IIIC activity by 50 percent
Examples of compounds with documented Ki follow.
reportedMetric: Ki (µM)

INSERT INTO assay_data (compound, numericreadout) VALUES
  ('CCc1cc(Nc2cc(=O)n(CCCCN3CCOC4CN(c5cc6c(cc5F)c(=O)c(C(=O)O)cn6C5CC5)CC43)c(=O)[nH]2)ccc1C (stereo not drawn)', 0.088),
  ('CCc1cc(Nc2cc(=O)n(CCCCCN3CCN(c4cc5c(cc4F)c(=O)c(C(=O)O)cn5C4CC4)CC3)c(=O)[nH]2)ccc1C', 0.03),
  ('CCc1cc(Nc2cc(=O)n(CCCCN3CCN(c4c(F)cc5c(=O)c(C(=O)O)cn(C6CC6)c5c4F)C[C@H]3C)c(=O)[nH]2)ccc1C', 0.004),
  ('CCc1cc(Nc2cc(=O)n(CCCCN3CCN(c4cc5c(cc4F)c(=O)c(C(=O)O)cn5-c4ccc(F)cc4F)CC3C)c(=O)[nH]2)ccc1C (stereo not drawn)', 0.018),
  ('CCc1cc(Nc2cc(=O)n(CCCCCN3CCC4CN(c5cc6c(cc5F)c(=O)c(C(=O)O)cn6C5CC5)CC43)c(=O)[nH]2)ccc1C (stereo not drawn)', 0.04),
  ('CCc1cc(Nc2cc(=O)n(CCCCCN3CCOC4CN(c5cc6c(cc5F)c(=O)c(C(=O)O)cn6C5CC5)CC43)c(=O)[nH]2)ccc1C (stereo not drawn)', 0.033);
